system: U251 CNS; assay: NCI-60 one-dose screen, 48 h; conditions: 10 µM unless noted
About 83,000 compounds went through this panel and 20% of them were active in at least one assay; those are over-represented in the sample as a whole. Calls of active or inactive are those of the source. How the source made its calls: active means growth percent below 10; inactive means the rest.
Just give me one of these, please: Yes (active), No (inactive)

Please review the entries below; each comes with its answer.
>  <COMPOUND>
O=c1[nH]c(N2CCOCC2)nc2scc(-c3ccccc3)c12

>  <LABEL>
No

$$$$
>  <COMPOUND>
O=C(NCCO)Nc1ccc(-c2nc(N3CCOCC3)c3cccn3n2)cc1

>  <LABEL>
No

$$$$
>  <COMPOUND>
Fc1ccc(NCc2cn(-c3ccccc3)nc2-c2ccc(OCc3ccccc3)cc2)cc1Cl

>  <LABEL>
No

$$$$
>  <COMPOUND>
CCCCCCCC(=O)SCC/C=C/[C@@H]1CC(=O)NCc2cccc(n2)C2=N[C@@](C)(CS2)C(=O)N[C@@H](C(C)C)C(=O)N1

>  <LABEL>
No

$$$$
>  <COMPOUND>
COc1cc2c(cc1OCCCN1Cc3ccc(OCCCCC(=O)N4CCC(CCN5CCCC5)CC4)cc3C1)N=C(N)C21CCCC1

>  <LABEL>
No

$$$$
>  <COMPOUND>
O=c1[nH]ccc2c(S(=O)(=O)N3CCCNCC3)cccc12

>  <LABEL>
No

$$$$

Q: Outcome logged for Cc1cc2c(-c3nc4ccccn4c3NC34CC5CC(CC(C5)C3)C4)c(O)c(O)cc2c(O)c1-c1c(C)cc2c(-c3nc4ccccn4c3NC34CC5CC(CC(C5)C3)C4)c(O)c(O)cc2c1O in this assay:
A: Yes

Q: Note, next up: O=C(c1ccc(/C=C/c2n[nH]c3ccccc23)cc1)N1CCNCC1
A: No

Q: Note, next up: Ic1ccccc1-c1ccccc1
A: No

----------
test system: UACC-257 melanoma; test: NCI-60 one-dose screen, 48 h (100 = growth as untreated, 0 = no growth, -100 = all killed); details: 10 µM unless noted
Compounds without any hit were thinned out: in the full panel of roughly 83,000, 20% have a hit.
Decide using growth: a value greater than or equal to 70% is Condition met, a smaller one is Condition not met.

Please review the entries below; each comes with its answer.
>  <COMPOUND>
CNC(=O)c1cc(Oc2cccc3nc(Nc4ccc(Oc5ccccc5)cc4)ccc23)ccn1

>  <EXPERIMENTAL_TARGET>
UACC-257 melanoma

>  <LABEL>
Condition met

$$$$
>  <COMPOUND>
CC(=O)C1=C(C)NC(SCc2nnc(-c3ccc(C)cc3)o2)=NC1c1ccc(F)cc1 (stereo not drawn)

>  <EXPERIMENTAL_TARGET>
UACC-257 melanoma

>  <LABEL>
Condition met

$$$$
>  <COMPOUND>
Cc1nc(-c2cn3c(n2)-c2ccc(-c4cnn(C(C)(C)C(N)=O)c4)cc2OCC3)n(C(C)C)n1

>  <EXPERIMENTAL_TARGET>
UACC-257 melanoma

>  <LABEL>
Condition not met

$$$$
>  <COMPOUND>
COC(=O)Nc1nc2ccc(C(=O)c3ccc(N(C)C4COC4)cc3)cc2[nH]1

>  <EXPERIMENTAL_TARGET>
UACC-257 melanoma

>  <LABEL>
Condition not met

$$$$
>  <COMPOUND>
O=C(COc1ccc(/C=C2\Cc3ccc(Cl)cc3C2=O)cc1)Nc1nccs1

>  <EXPERIMENTAL_TARGET>
UACC-257 melanoma

>  <LABEL>
Condition met

$$$$
>  <COMPOUND>
CCN(CC)CCNC(=O)c1c(C)[nH]c(/C=C2\C(=O)Nc3ccc(F)cc32)c1C

>  <EXPERIMENTAL_TARGET>
UACC-257 melanoma

>  <LABEL>
Condition not met

$$$$

Consider the record given below.
Q: Evaluate COc1cc2ncnc(Nc3ccc(F)c(Cl)c3)c2cc1NC(=O)/C=C/CN1CCCCC1 : growth at minimum 70%?
A: Condition not met
